Entries and their Triglyceride
# Tested on: Obese Zucker rats
# EXPERIMENT: In vivo assessment in obese Zucker rats: blood lipid profile (total cholesterol, triglycerides, HDL)
# STATED CONDITIONS: daily 400 μg Cr(III)/kg, 8 weeks, mean
// return the numeric value with its unit appended

// known answers, use as guide
COMPOUND: CCC(=O)[O-].CCC(=O)[O-].CCC(=O)[O-].[Cr+3] [CrProp, Chromium Propionate, reference compound]
VALUE: 456.14 mg/dL
--
COMPOUND: N[C@@H](CS)C(=O)O [Cys, Cysteine, reference compound]
VALUE: 503.57 mg/dL
--
COMPOUND: N=C(N)NCCC[C@H](N)C(=O)O [Arg, Arginine, reference compound]
VALUE: 485.74 mg/dL

Now consider the entry below.
Output Triglyceride of O=C(O)c1cccnc1 [Niacin, reference compound]
486.67 mg/dL

###

# System: Obese Zucker rats
# EXPERIMENT: In vivo assessment in obese Zucker rats: other vascular inflammation markers (cAMP, TNFα, IL-6, OxyDNA)
# STATED CONDITIONS: oxidative DNA damage; obese Zucker rats, daily 400 μg Cr(III)/kg, 8 weeks; mean ± SE
OBSERVABLE: OxyDNA (ng/mL)
Just the number please, in ng/mL, no unit attached.

# count of solved cases: 3
COMPOUND: O=C(O)c1cccnc1 [Niacin, reference compound]
OBSERVABLE: OxyDNA
VALUE: 47.31
//
COMPOUND: N=C(N)NCCC[C@H](N)C(=O)O [Arg, Arginine, reference compound]
OBSERVABLE: OxyDNA
VALUE: 62.90
//
COMPOUND: CCC(=O)[O-].CCC(=O)[O-].CCC(=O)[O-].[Cr+3] [CrProp, Chromium Propionate, reference compound]
OBSERVABLE: OxyDNA
VALUE: 47.19

Shifting focus to the compound that follows.
Look up and state reported OxyDNA for N[C@@H](CS)C(=O)O [Cys, Cysteine, reference compound]
54.56

###

# Test system: Obese Zucker rats
# EXPERIMENT: In vivo assessment in obese Zucker rats: key biological parameters (fasting glucose, HbA1c, vitamin C, GSH, RBC lipid peroxidation)
# STATED CONDITIONS: obese Zucker rats, daily 400 μg Cr(III)/kg, 8 weeks; mean
The following compounds are shown together with reported HbA1c values.
Enter your answer as a number in %; do not include the unit.

COMPOUND: O=C(O)c1cccnc1 [Niacin, reference compound]
TEST SYSTEM: Obese Zucker rats
VALUE: 15.60
--
COMPOUND: N[C@@H](CS)C(=O)O [Cys, Cysteine, reference compound]
TEST SYSTEM: Obese Zucker rats
VALUE: 15.17
--
COMPOUND: N=C(N)NCCC[C@H](N)C(=O)O [Arg, Arginine, reference compound]
TEST SYSTEM: Obese Zucker rats
VALUE: 15.88

Please find the next compound below.
Write down HbA1c measured for item CCC(=O)[O-].CCC(=O)[O-].CCC(=O)[O-].[Cr+3] [CrProp, Chromium Propionate, reference compound]
16.90

###

# System: Obese Zucker rats
# EXPERIMENT: In vivo assessment in obese Zucker rats: vascular inflammation markers (MCP-1, CRP, RBP-4, leptin, ICAM, adiponectin)
# STATED CONDITIONS: plasma, ELISA; obese Zucker rats, daily 400 μg Cr(III)/kg, 8 weeks; mean
OBSERVABLE: CRP (ng/mL)
Entry rule: numbers only, all in ng/mL.

MOLECULE: CCC(=O)[O-].CCC(=O)[O-].CCC(=O)[O-].[Cr+3] [CrProp, Chromium Propionate, reference compound]
CRP [ng/mL]: 820.04
//
MOLECULE: O=C(O)c1cccnc1 [Niacin, reference compound]
CRP [ng/mL]: 548.27
//
MOLECULE: N=C(N)NCCC[C@H](N)C(=O)O [Arg, Arginine, reference compound]
CRP [ng/mL]: 617.34

# ---- query molecule ----
Provide Obese Zucker rats CRP reading for N[C@@H](CS)C(=O)O [Cys, Cysteine, reference compound] .
551.39
